- system-tested: biotin-labelled EZH2 protein (UniProt Q15910)
- Sequence (Q15910 whole entry): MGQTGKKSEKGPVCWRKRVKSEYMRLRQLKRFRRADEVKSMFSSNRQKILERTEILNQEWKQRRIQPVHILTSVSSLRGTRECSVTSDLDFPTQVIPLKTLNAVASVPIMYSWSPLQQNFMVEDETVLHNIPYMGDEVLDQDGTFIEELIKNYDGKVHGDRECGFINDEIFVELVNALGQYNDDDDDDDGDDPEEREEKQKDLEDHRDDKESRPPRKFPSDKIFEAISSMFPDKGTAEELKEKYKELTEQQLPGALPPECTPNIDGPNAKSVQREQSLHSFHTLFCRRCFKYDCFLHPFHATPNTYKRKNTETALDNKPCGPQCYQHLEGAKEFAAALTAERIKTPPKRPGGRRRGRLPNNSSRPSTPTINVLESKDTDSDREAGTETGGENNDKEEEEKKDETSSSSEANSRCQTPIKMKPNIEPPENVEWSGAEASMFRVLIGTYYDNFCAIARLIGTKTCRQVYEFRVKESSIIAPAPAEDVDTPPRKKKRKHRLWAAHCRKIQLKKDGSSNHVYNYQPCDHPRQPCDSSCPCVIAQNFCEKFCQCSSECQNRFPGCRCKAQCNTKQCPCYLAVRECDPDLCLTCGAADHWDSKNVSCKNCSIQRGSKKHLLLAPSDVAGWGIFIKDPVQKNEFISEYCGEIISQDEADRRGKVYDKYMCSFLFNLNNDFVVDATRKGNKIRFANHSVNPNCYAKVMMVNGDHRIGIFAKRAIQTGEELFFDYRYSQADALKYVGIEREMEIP
- assay-comment: KDM2B peptide array probed with biotin-EZH2 1 ug/ml, SA-HRP/ECL
I'd appreciate it if you could supply Intensity (%) values for the items below.
// return numeric value only (unit: %, not printed)

input: Need Intensity (%), item CIMRQCIAPVLPHTA [peptide 130]
output: 30.8

input: Need Intensity (%), item QPKFRYPFYYEMCWY [peptide 71]
output: 0.57

input: Need Intensity (%), item LAVDYPKTPTGSPAT [peptide 98]
output: 0.77

input: Need Intensity (%), item IYEIEDRTRVQPKFR [peptide 69]
output: 0.15

input: Need Intensity (%), item VLERYVYCVTQRSHL [peptide 74]
output: 0.25

Data provenance is patent US20250197451A1.
